target: 3,6-DKCMO (3,6-diketocamphane monooxygenase; 36DKCMO) (Pseudomonas putida); construct: gene camE36; oxygenating subunit, native purification from camphor-grown cells; CAM plasmid-coded; homodimer; five Trp per monomer; assay: spectrophotometric titration at […] nm; assay type: binding
measurement type: Kd (µM)
Record the value in µM, omitting the unit from your answer.

The molecule Cc1cc2nc3c(=O)[nH]c(=O)nc-3n(C[C@H](O)[C@H](O)[C@H](O)COP(=O)(O)O)c2cc1C [FMN] , when measured on 3,6-DKCMO (3,6-diketocamphane monooxygenase; 36DKCMO) (Pseudomonas putida), yielded Kd of 125

###

target: 2,5-DKCMO (2,5-diketocamphane monooxygenase; 25DKCMO); construct: gene camE25-1; oxygenating subunit, native purification from camphor-grown cells; CAM plasmid-coded; homodimer; nine Trp per monomer; test: spectrophotometric titration at […] nm; format: binding, Pseudomonas putida; conditions: aerobic, Tris-HCl pH 7.6, 10 µM FMN
measurement type: pKd
pKd is defined as minus the log10 of a concentration measured in mol/L.

Just so you know, measured pKd for Cc1cc2nc3c(=O)[nH]c(=O)nc-3n(C[C@H](O)[C@H](O)[C@H](O)COP(=O)(O)O)c2cc1C [FMN] came out at 3.96

###

molecular target: 3,6-DKCMO (3,6-diketocamphane monooxygenase; 36DKCMO) (Pseudomonas putida, UniProt D7UER1); construct: gene camE36; oxygenating subunit, native purification from camphor-grown cells; CAM plasmid-coded; homodimer; five Trp per monomer; assay: tryptophan fluorescence quenching titration (ex […] nm, em […] nm); type: binding
Sequence (D7UER1 whole entry): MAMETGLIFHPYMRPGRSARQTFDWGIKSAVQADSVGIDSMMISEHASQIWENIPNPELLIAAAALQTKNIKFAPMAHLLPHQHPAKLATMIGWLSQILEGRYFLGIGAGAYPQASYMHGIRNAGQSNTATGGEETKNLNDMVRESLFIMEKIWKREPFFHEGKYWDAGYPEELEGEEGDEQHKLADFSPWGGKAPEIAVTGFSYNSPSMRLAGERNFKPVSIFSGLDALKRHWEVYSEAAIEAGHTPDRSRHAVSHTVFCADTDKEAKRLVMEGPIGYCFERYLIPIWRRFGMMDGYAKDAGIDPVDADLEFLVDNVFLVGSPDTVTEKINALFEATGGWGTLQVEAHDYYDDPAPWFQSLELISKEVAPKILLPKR
measurement type: Kd (nM)
Report the figure in nM without appending any unit label.

Reported Kd of Cc1cc2c(cc1C)N(C[C@H](O)[C@H](O)[C@H](O)COP(=O)(O)O)c1[nH]c(=O)[nH]c(=O)c1N2 [FNR] : 240
